These entries and their values trace back to PubChem BioAssay (NCI).

Test system: IGROV1 ovarian
ASSAY: NCI tumour cell line growth inhibition, 48 h
VALUE KIND: TGI

Solved entries:
COMPOUND	TGI
COc1cc([C@@H]2c3cc4c(cc3[C@@H](NC(=O)c3cccc([N+](=O)[O-])c3)C3COC(=O)[C@@H]32)OCO4)cc(OC)c1O (stereo partly drawn)	> 37.4 µM
O=C(O)Cc1ccc2nc(COC(=O)c3ccccc3)sc2c1	> 100 µM

Then there is this compound:
Answer with reported TGI of `CC[n+]1ccc2c(c1)C(=O)c1nccc3c1c-2nc1ccccc13`
10.9 µM

----------
System: A498 renal
ASSAY: NCI tumour cell line growth inhibition, 48 h
VALUE KIND: GI50

MOLECULE	GI50
Cn1c(-c2nonc2N)nc2cnccc21	16 µM

Answer with reported GI50 of OC(c1cccc(C(F)(F)F)c1)c1cnccc1NC1CCCCCC1 (stereo unspecified)
3.68 µM

Answer with reported GI50 of `Fc1ccc(-c2nn(-c3ccccc3)cc2-c2nc3ccccc3o2)cc1`
2.97 µM

Answer with reported GI50 of `Cc1c(Cl)cccc1Nc1ncccc1C(=O)O`
34.3 µM

Answer with reported GI50 of `CC1=C(CCCOC(=O)NCCCl)C2=C(C)C3(CC3)[C@@](C)(O)C(=O)C2=C1`
1.88 µM

Answer with reported GI50 of `CC(=O)c1ccc(N(/C=C/C(=O)C(F)(F)F)CC(=O)c2ccc(Cl)c(Cl)c2)cc1`
14.5 µM

----------
Each entry below carries its reported TGI.
Test system: MOLT-4 leukemia
ASSAY: NCI tumour cell line growth inhibition, 48 h
Kindly answer with a numeric value in µM, unit omitted.

COMPOUND	SYSTEM NAME	VALUE KIND	READOUT UNITS	VALUE
COC(=O)CCCC(=O)C(=Nc1c(Cl)cccc1Cl)NNc1ccc(Cl)cc1	MOLT-4 leukemia	TGI	µM	76.6
Cc1cc(C)c2c(n1)S(=O)(=O)N(CCCN1CCN(c3cccc(C(F)(F)F)c3)CC1)/C(=C(\O)c1ccc(Cl)cc1)C2=O	MOLT-4 leukemia	TGI	µM	4
CCCCCCCCCCCCOC1C(CNCC2OC3OC(C)(C)OC3C2NC(=O)Nc2ccc(C(=O)OCC)cc2)OC2OC(C)(C)OC21 (stereo not given)	MOLT-4 leukemia	TGI	µM	8.43

Answer with reported TGI of `O=C1C(Br)=Cc2c(Cl)sc(Cl)c21`
2.08

Answer with reported TGI of `CCOC(=O)c1c(SCCN2CCCC2)n(-c2ccccc2)c(=S)n(-c2ccccc2)c1=O`
5.11

----------
Tested on: UACC-62 melanoma
ASSAY: NCI tumour cell line growth inhibition, 48 h
Each entry below carries its reported TGI.

Solved entries:
COMPOUND	SYSTEM NAME	TGI
CCCNC(=O)OCc1c(COC(=O)NCCC)c(-c2ccc(Cl)c(Cl)c2)n2c1CCC2	UACC-62 melanoma	13.3 µM
COc1cc2c(cc1OC)C(=O)/C(=C/c1cc(C)c(O)c(C)c1)C2	UACC-62 melanoma	> 100 µM
CC(=O)OCC1OC(n2c(=S)[nH]c(-c3ccccc3)c(C#N)c2=O)C(OC(C)=O)C(OC(C)=O)C1OC(C)=O (stereo not given)	UACC-62 melanoma	> 100 µM

Please tell me the measured TGI for `COc1ccc(CNc2nc3ccc(C(F)(F)F)cc3nc2-c2ccccc2)cc1OC` ; system: UACC-62 melanoma.
> 100 µM

Please tell me the measured TGI for `CN(C)S(=O)(=O)Nc1ccccn1` ; system: UACC-62 melanoma.
> 100 µM
